Assay: Pharmacokinetic study of KW-3902, single intravenous dose, serum concentrations
Assay type: in vivo
Settings: human, 2.5 mg, single intravenous dose 2.5 mg, Group 1 (n = 4)
measured quantity: AUC(0-inf) (ng·h/mL)
Number in ng·h/mL, nothing else.

Query :: Requested read-out: AUC(0-inf). Entry: CCCn1c(=O)c2[nH]c(C34CC5CC(CC3C5)C4)nc2n(CCC)c1=O [KW-3902, 8-(3-noradamantyl)-1,3-dipropylxanthine]
Result :: 97.6

---

Experiment: Pharmacokinetic study of KW-3902, single intravenous dose, serum concentrations
Type: in vivo
Conditions: human, 5 mg, single intravenous dose 5 mg, Group 2, serum
measured quantity: Cmax (µg/mL)
Number in µg/mL, nothing else.

Query :: Requested read-out: Cmax. Entry: CCCn1c(=O)c2[nH]c(C34CC5CC(CC3C5)C4)nc2n(CCC)c1=O [KW-3902, 8-(3-noradamantyl)-1,3-dipropylxanthine]
Result :: 0.0909

---

Assay: Pharmacokinetic study of KW-3902, single intravenous dose, serum concentrations
Format: in vivo
Conditions: human, 60 mg, single intravenous dose 60 mg, Group 4, serum
measured quantity: MRT inf
In your response, the unit should come after the numeric value.

Query :: Requested read-out: MRT inf. Entry: CCCn1c(=O)c2[nH]c(C34CC5CC(CC3C5)C4)nc2n(CCC)c1=O [KW-3902, 8-(3-noradamantyl)-1,3-dipropylxanthine]
Result :: 9.2 h

---

Test: Pharmacokinetic study of KW-3902, single intravenous dose, serum concentrations
Assay type: in vivo
Conditions: human, 2.5 mg, single intravenous dose 2.5 mg, Group 2 (n = 8)
measured quantity: MRT inf (h)
Number in h, nothing else.

Query :: Requested read-out: MRT inf. Entry: CCCn1c(=O)c2[nH]c(C34CC5CC(CC3C5)C4)nc2n(CCC)c1=O [KW-3902, 8-(3-noradamantyl)-1,3-dipropylxanthine]
Result :: 4.7

---

Test: Pharmacokinetic study of KW-3902, single intravenous dose, serum concentrations
Format: in vivo
Details: human, 20 mg, single intravenous dose 20 mg, Group 3, serum
measured quantity: Cmax (ng/mL)
Number in ng/mL, nothing else.

Query :: Requested read-out: Cmax. Entry: CCCn1c(=O)c2[nH]c(C34CC5CC(CC3C5)C4)nc2n(CCC)c1=O
Result :: 294

---

Assay: Pharmacokinetic study of KW-3902, single intravenous dose, serum concentrations
Format: in vivo
Settings: human, 2.5 mg, single intravenous dose 2.5 mg, Group 1 (n = 4)
Experimental: Individuals received a single intravenous dose of 1 mg, 2.5 mg. 5 mg, 10 mg, 20 mg, 30 mg 40 mg, 50 mg or 60 mg KW-3902 as indicated. The serum concentrations of KW-3902 and its M1-trans metabolite were measured using routine analytical methods. Routine mathematical formulae were used to determine pharmacokinetic values.
measured quantity: MRT inf (h)
Number in h, nothing else.

Query :: Requested read-out: MRT inf. Entry: CCCn1c(=O)c2[nH]c(C34CC5CC(CC3C5)C4)nc2n(CCC)c1=O
Result :: 8.1

---

Assay: Pharmacokinetic study of KW-3902, single intravenous dose, serum concentrations
Type: in vivo
Conditions: human, 40 mg, single intravenous dose 40 mg, Group 4, serum, read-out: Tmax Median
measured quantity: Tmax (h)
Number in h, nothing else.

Query :: Requested read-out: Tmax. Entry: CCCn1c(=O)c2[nH]c(C34CC5CC(CC3C5)C4)nc2n(CCC)c1=O [KW-3902, 8-(3-noradamantyl)-1,3-dipropylxanthine]
Result :: 2.2

---

Test: Pharmacokinetic study of KW-3902, single intravenous dose, serum concentrations
Assay type: in vivo
Settings: human, 1 mg, single intravenous dose 1 mg, Group 1, serum
measured quantity: MRT inf (h)
Number in h, nothing else.

Query :: Requested read-out: MRT inf. Entry: CCCn1c(=O)c2[nH]c(C34CC5CC(CC3C5)C4)nc2n(CCC)c1=O
Result :: 2.6

---

Test: Pharmacokinetic study of KW-3902, single intravenous dose, serum concentrations
Format: in vivo
Conditions: human, 2.5 mg, single intravenous dose 2.5 mg, Group 2 (n = 8), read-out: Vss∞ Mean
measured quantity: Vd (L)
Number in L, nothing else.

Query :: Requested read-out: Vd. Entry: CCCn1c(=O)c2[nH]c(C34CC5CC(CC3C5)C4)nc2n(CCC)c1=O
Result :: 117

---

Assay: Pharmacokinetic study of KW-3902, single intravenous dose, serum concentrations
Type: in vivo
Conditions: human, 50 mg, single intravenous dose 50 mg, Group 4, serum, read-out: Tmax Median
Procedure: Individuals received a single intravenous dose of 1 mg, 2.5 mg. 5 mg, 10 mg, 20 mg, 30 mg 40 mg, 50 mg or 60 mg KW-3902 as indicated. The serum concentrations of KW-3902 and its M1-trans metabolite were measured using routine analytical methods. Routine mathematical formulae were used to determine pharmacokinetic values.
measured quantity: Tmax
In your response, the unit should come after the numeric value.

Query :: Requested read-out: Tmax. Entry: CCCn1c(=O)c2[nH]c(C34CC5CC(CC3C5)C4)nc2n(CCC)c1=O [KW-3902, 8-(3-noradamantyl)-1,3-dipropylxanthine]
Result :: 1.6 h

---

Experiment: Pharmacokinetic study of KW-3902, single intravenous dose, serum concentrations
Type: in vivo
Conditions: human, 40 mg, single intravenous dose 40 mg, Group 4, serum, read-out: CL∞ Mean (converted)
measured quantity: clearance
In your response, the unit should come after the numeric value.

Query :: Requested read-out: clearance. Entry: CCCn1c(=O)c2[nH]c(C34CC5CC(CC3C5)C4)nc2n(CCC)c1=O [KW-3902, 8-(3-noradamantyl)-1,3-dipropylxanthine]
Result :: 372 mL/min

---

Test: Pharmacokinetic study of KW-3902, single intravenous dose, serum concentrations
Assay type: in vivo
Conditions: human, 2.5 mg, single intravenous dose 2.5 mg, Group 1 (n = 4)
measured quantity: Cmax (ng/mL)
Number in ng/mL, nothing else.

Query :: Requested read-out: Cmax. Entry: CCCn1c(=O)c2[nH]c(C34CC5CC(CC3C5)C4)nc2n(CCC)c1=O
Result :: 35.6

---

Assay: Pharmacokinetic study of KW-3902, single intravenous dose, serum concentrations
Format: in vivo
Settings: human, 2.5 mg, single intravenous dose 2.5 mg, Group 2 (n = 8)
measured quantity: Cmax (ng/mL)
Number in ng/mL, nothing else.

Query :: Requested read-out: Cmax. Entry: CCCn1c(=O)c2[nH]c(C34CC5CC(CC3C5)C4)nc2n(CCC)c1=O [KW-3902, 8-(3-noradamantyl)-1,3-dipropylxanthine]
Result :: 35.9

---

Test: Pharmacokinetic study of KW-3902, single intravenous dose, serum concentrations
Format: in vivo
Settings: human, 10 mg, single intravenous dose 10 mg, Group 2, serum, read-out: Tmax Median
measured quantity: Tmax (min)
Number in min, nothing else.

Query :: Requested read-out: Tmax. Entry: CCCn1c(=O)c2[nH]c(C34CC5CC(CC3C5)C4)nc2n(CCC)c1=O
Result :: 30

---

Test: Pharmacokinetic study of KW-3902, single intravenous dose, serum concentrations
Format: in vivo
Details: human, 40 mg, single intravenous dose 40 mg, Group 4, serum
measured quantity: MRT inf
In your response, the unit should come after the numeric value.

Query :: Requested read-out: MRT inf. Entry: CCCn1c(=O)c2[nH]c(C34CC5CC(CC3C5)C4)nc2n(CCC)c1=O [KW-3902, 8-(3-noradamantyl)-1,3-dipropylxanthine]
Result :: 9.4 h

---

Test: Pharmacokinetic study of KW-3902, single intravenous dose, serum concentrations
Format: in vivo
Details: human, 40 mg, single intravenous dose 40 mg, Group 4, serum
measured quantity: Cmax
In your response, the unit should come after the numeric value.

Query :: Requested read-out: Cmax. Entry: CCCn1c(=O)c2[nH]c(C34CC5CC(CC3C5)C4)nc2n(CCC)c1=O [KW-3902, 8-(3-noradamantyl)-1,3-dipropylxanthine]
Result :: 452 ng/mL

---

Experiment: Pharmacokinetic study of KW-3902, single intravenous dose, serum concentrations
Assay type: in vivo
Details: human, 50 mg, single intravenous dose 50 mg, Group 4, serum
measured quantity: AUC(0-inf) (ng·h/mL)
Number in ng·h/mL, nothing else.

Query :: Requested read-out: AUC(0-inf). Entry: CCCn1c(=O)c2[nH]c(C34CC5CC(CC3C5)C4)nc2n(CCC)c1=O [KW-3902, 8-(3-noradamantyl)-1,3-dipropylxanthine]
Result :: 2120

---

Test: Pharmacokinetic study of KW-3902, single intravenous dose, serum concentrations
Format: in vivo
Conditions: human, 20 mg, single intravenous dose 20 mg, Group 3, serum, read-out: Vss∞ Mean
measured quantity: Vd (L)
Number in L, nothing else.

Query :: Requested read-out: Vd. Entry: CCCn1c(=O)c2[nH]c(C34CC5CC(CC3C5)C4)nc2n(CCC)c1=O
Result :: 244

---

Experiment: Pharmacokinetic study of KW-3902, single intravenous dose, serum concentrations
Type: in vivo
Conditions: human, 50 mg, single intravenous dose 50 mg, Group 4, serum, read-out: Vss∞ Mean
measured quantity: Vd (L)
Number in L, nothing else.

Query :: Requested read-out: Vd. Entry: CCCn1c(=O)c2[nH]c(C34CC5CC(CC3C5)C4)nc2n(CCC)c1=O
Result :: 166
